Recorded values, source ChEMBL document CHEMBL5244275.

Target: Sodium/glucose cotransporter 2 (Homo sapiens, UniProt P31639)
Sequence (P31639 whole entry): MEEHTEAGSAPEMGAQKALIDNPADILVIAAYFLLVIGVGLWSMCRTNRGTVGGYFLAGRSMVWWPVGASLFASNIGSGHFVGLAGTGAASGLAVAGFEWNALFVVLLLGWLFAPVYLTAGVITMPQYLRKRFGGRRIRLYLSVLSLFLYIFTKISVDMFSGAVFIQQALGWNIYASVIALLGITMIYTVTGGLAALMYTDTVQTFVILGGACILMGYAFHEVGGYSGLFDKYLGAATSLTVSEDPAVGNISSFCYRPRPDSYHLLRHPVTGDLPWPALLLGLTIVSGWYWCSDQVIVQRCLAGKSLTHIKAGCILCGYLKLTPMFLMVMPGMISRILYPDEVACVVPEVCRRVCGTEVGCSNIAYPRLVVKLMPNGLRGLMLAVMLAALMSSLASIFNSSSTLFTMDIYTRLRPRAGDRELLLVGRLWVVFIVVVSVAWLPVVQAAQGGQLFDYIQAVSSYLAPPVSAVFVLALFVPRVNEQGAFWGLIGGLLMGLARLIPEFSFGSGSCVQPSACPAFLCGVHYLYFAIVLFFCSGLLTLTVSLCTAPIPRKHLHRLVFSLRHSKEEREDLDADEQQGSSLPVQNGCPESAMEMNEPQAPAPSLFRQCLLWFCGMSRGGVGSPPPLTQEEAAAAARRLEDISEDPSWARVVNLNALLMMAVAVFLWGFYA
quantityName: pIC50
Lab note — pIC50 values are minus log10 of concentrations in M.

Q. Write down the reported pIC50 of CCOc1ccc(Cc2cc([C@]34CO[C@](CO)(O3)[C@@H](O)[C@H](O)[C@H]4O)ccc2Cl)cc1 , test system: Sodium/glucose cotransporter 2 (Homo sapiens, UniProt P31639).
A. 6.15

* * *

Assay: Stability of the compound at pH 2 assessed as half-life
Format: physicochemical
Conditions: buffer
quantityName: log10 of half-life (log10 of the value in min)
Recall that a logarithmic scale is used here: each number is log10 of half-life in min.

Recorded results for 4 compounds are shown here.
> print(dat)
                                   compound        quantityname  endpointvalue
1  CO[C@H]1O[C@@H]2O[C@@]3(C)CC[C@H]4[C@H](C)CC[C@@H]([C@H]1C)[C@@]24OO3  log10 of half-life           2.82
2  CC1(C)OC[C@@H](C/C=C\CCCC(=O)O)[C@@H](c2ccccc2O)O1  log10 of half-life          -0.03
3  C[C@@H]1CC[C@H]2[C@@H](C)[C@](O)(C(F)(F)F)O[C@@H]3O[C@@]4(C)CC[C@@H]1[C@]32OO4  log10 of half-life           4.66
4  C[C@H]1[C@@H](O)O[C@@H]2O[C@@]3(C)CC[C@H]4[C@H](C)CC[C@@H]1[C@@]24OO3 [ARTENIMOL]  log10 of half-life           3.01

Now turn to the next compound.
Q. Reported log10 of half-life for CO[C@@]1(C(F)(F)F)O[C@@H]2O[C@@]3(C)CC[C@H]4[C@H](C)CC[C@@H]([C@H]1C)[C@@]24OO3 : what is it?
A. 4.60

* * *

Assay: Dissociation constant, pKa of the compound
Assay type: physicochemical
Reported pKa is given for each of the following compounds.
// return a plain number; no unit text

Recorded results for 2 compounds are shown here.
> print(dat)
                                   compound  quantityname  endpointvalue
1  FC(F)(F)c1cc(CO[C@H]2CCCN[C@H]2c2ccccc2)cc(C(F)(F)F)c1           pKa            8.3
2  O=c1[nH]nc(CN2CCC[C@H](OCc3cc(C(F)(F)F)cc(C(F)(F)F)c3)[C@@H]2c2ccccc2)[nH]1           pKa            5.3

Now turn to the next compound.
Q. Reported pKa for CCC(C)n1ncn(-c2ccc(N3CCN(c4ccc(OCC5COC(Cn6cncn6)(c6ccc(Cl)cc6Cl)O5)cc4)CC3)cc2)c1=O (stereo unspecified) [ITRACONAZOLE] : what is it?
A. 3.7

* * *

Reported log10(GI50) is given for each of the following compounds.
Test: Growth inhibition of human PC-12 cells
Format: functional, PC12
Recall that a logarithmic scale is used here: each number is log10 of GI50 in ng/mL.

compound	log10(GI50)
CC(=O)O[C@@]12CO[C@@H]1CC[C@@]1(C)[C@@H]3O[C@H](CN4CCOCC4)O[C@@H]3C3=C(C)[C@@H](OC(=O)[C@H](O)[C@@H](NC(=O)OC(C)(C)C)c4ncccc4F)C[C@@](O)([C@@H](OC(=O)c4ccccc4)[C@@H]12)C3(C)C	-0.85
CC(=O)O[C@H]1C(=O)[C@@]2(C)[C@H]([C@H](OC(=O)c3ccccc3)[C@]3(O)C[C@H](OC(=O)[C@H](O)[C@@H](NC(=O)c4ccccc4)c4ccccc4)C(C)=C1C3(C)C)[C@]1(OC(C)=O)CO[C@@H]1C[C@@H]2O [PACLITAXEL]	2.73
CC(=O)O[C@@]12CO[C@@H]1CC[C@@]1(C)[C@H]3OC(C)(C)O[C@@H]3C3=C(C)[C@@H](OC(=O)[C@H](O)[C@@H](NC(=O)OC(C)(C)C)c4ccccn4)C[C@@](O)([C@@H](OC(=O)c4ccccc4)[C@@H]12)C3(C)C	-0.82
CC(=O)O[C@@]12CO[C@@H]1CC[C@@]1(C)[C@@H]3O[C@H](CN(C)C)O[C@@H]3C3=C(C)[C@@H](OC(=O)[C@H](O)[C@@H](NC(=O)OC(C)(C)C)c4ncccc4F)C[C@@](O)([C@@H](OC(=O)c4ccccc4)[C@@H]12)C3(C)C [TESETAXEL]	-0.21

Now turn to the next compound.
Q. Reported log10(GI50) for CC(=O)O[C@@]12CO[C@@H]1C[C@H](O)[C@@]1(C)C(=O)[C@H](O)C3=C(C)[C@@H](OC(=O)[C@H](O)[C@@H](NC(=O)OC(C)(C)C)c4ccccc4)C[C@@](O)([C@@H](OC(=O)c4ccccc4)[C@H]21)C3(C)C [DOCETAXEL ANHYDROUS] : what is it?
A. 1.63

* * *

Reported IC50 is given for each of the following compounds.
Target: UniProt P31645
Sequence (P31645 whole entry): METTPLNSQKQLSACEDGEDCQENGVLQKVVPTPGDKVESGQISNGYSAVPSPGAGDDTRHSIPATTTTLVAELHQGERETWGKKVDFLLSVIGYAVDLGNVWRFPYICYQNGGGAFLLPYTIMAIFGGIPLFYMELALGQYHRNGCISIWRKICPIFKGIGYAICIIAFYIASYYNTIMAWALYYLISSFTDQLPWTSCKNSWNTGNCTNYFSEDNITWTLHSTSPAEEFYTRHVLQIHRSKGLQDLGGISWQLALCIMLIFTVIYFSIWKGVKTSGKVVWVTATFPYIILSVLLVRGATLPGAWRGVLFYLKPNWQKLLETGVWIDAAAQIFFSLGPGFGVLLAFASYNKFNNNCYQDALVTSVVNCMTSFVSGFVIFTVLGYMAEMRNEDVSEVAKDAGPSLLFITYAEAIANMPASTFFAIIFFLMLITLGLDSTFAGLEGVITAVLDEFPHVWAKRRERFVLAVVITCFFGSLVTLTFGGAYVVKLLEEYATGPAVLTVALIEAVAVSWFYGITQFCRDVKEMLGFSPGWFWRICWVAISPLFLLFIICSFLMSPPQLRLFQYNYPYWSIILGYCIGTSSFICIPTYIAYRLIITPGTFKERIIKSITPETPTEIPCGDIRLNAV
Test: Inhibition of SERT (unknown origin)
Provide only the numeric value, understood in nM.

> print(dat)
                               smilesrecord  experimentaltarget  endpointvalue
1  COC(=O)[C@H]1[C@@H](c2ccc(Cl)c(Cl)c2)C[C@@H]2CC[C@H]1N2C      UniProt P31645              2

Q. Write down the reported IC50 of COC(=O)[C@H]1[C@@H](c2ccc(Cl)c(Cl)c2)C[C@@H]2CC[C@H]1O2 , test system: UniProt P31645.
A. 4.67

* * *

// endpoint IC50 / system Human immunodeficiency virus type 1 protease (Human immunodeficiency virus 1)
Provide only the numeric value, understood in nM.

Recorded results for 3 molecules are shown here.
molecule	uom	IC50
COc1ccc(S(=O)(=O)N(CC(C)C)C[C@@H](O)[C@H](Cc2ccccc2)NC(=O)O[C@H]2CO[C@H]3O[C@@H]4OCC[C@@H]4[C@H]32)cc1	nM	1.8
CC(C)(C)NC(=O)[C@@H]1C[C@@H]2CCCC[C@@H]2CN1C[C@@H](O)[C@H](Cc1ccccc1)NC(=O)O[C@H]1CO[C@H]2CCC[C@H]21	nM	190
CC(C)(C)NC(=O)[C@@H]1C[C@@H]2CCCC[C@@H]2CN1C[C@@H](O)[C@H](Cc1ccccc1)NC(=O)O[C@H]1CC[C@H]2OCC[C@@H]12	nM	17

Now turn to the next molecule.
Q. Reported IC50 for CC(C)CN(C[C@@H](O)[C@H](Cc1ccccc1)NC(=O)O[C@H]1C2CO[C@H]3OCC1C3C2)S(=O)(=O)c1ccc2oc(NC3CC3)nc2c1 (some centres undefined) : what is it?
A. 0.26

* * *

Assay: Half-life of the compound in aqueous solution at pH 6.0
Assay type: physicochemical
quantityName: half-life (days)
Provide only the numeric value, understood in days.

Q. Reported half-life for CO[C@@]1(NC(=O)CCC[C@@H](N)C(=O)O)C(=O)N2C(C(=O)O)=C(COC(N)=O)CS[C@@H]21 : what is it?
A. 19.1

* * *

Test system: CCRF-CEM
Experiment: Anticancer activity against human CCRF-CEM cells
Assay type: functional, cell-based
Reported pIC50 is given for each of the following compounds.
Lab note — pIC50 values are minus log10 of concentrations in M.

> print(dat)
                                   compound  experimentaltarget  endpointvalue
1  Nc1nc(F)nc2c1ncn2[C@@H]1O[C@H](COP(=O)(O)O)[C@@H](O)[C@@H]1O [FLUDARABINE PHOSPHATE]            CCRF-CEM           6.40

Now turn to the next compound.
Q. Reported pIC50 for Nc1nc(Cl)nc2c1ncn2[C@@H]1O[C@H](CO)[C@@H](O)[C@@H]1F [CLOFARABINE] : what is it?
A. 7.22

* * *

Test: Oral bioavailability in monkey
Assay type: ADME, organism-based, Macaca mulatta
Conditions: rhesus monkey, in vivo
Reported bioavailability is given for each of the following compounds.
Provide only the numeric value, understood in %.

Recorded results for 2 compounds are shown here.
compound	endpointValue
COC(=O)N[C@H](C(=O)N1CCC[C@H]1c1nc(-c2ccc3c(c2)O[C@@H](c2ccccc2)n2c-3cc3cc(-c4c[nH]c([C@@H]5CCCN5C(=O)[C@@H](NC(=O)OC)C(C)C)n4)ccc32)c[nH]1)C(C)C [ELBASVIR]	17
CCC[C@@H](NC(=O)N1C(=O)C(CC)(CC)[C@@H]1Oc1ccc(C(=O)N2CCN(C)CC2)cc1)c1ccc2c(c1)OCO2	39

Now turn to the next compound.
Q. Reported bioavailability for CCC[C@@H](NC(=O)N1C(=O)C(CC)(CC)[C@@H]1Oc1ccc(CC(=O)O)cc1)c1ccc(C)cc1 : what is it?
A. 23

* * *

System: Candida albicans
Assay: Fungicidal activity against Candida albicans
Assay type: functional
quantityName: MFC (µg/mL)
Provide only the numeric value, understood in µg/mL.

Q. Reported MFC for CC[C@H](C)C[C@H](C)CCCCCCCCC(=O)N[C@H]1C[C@@H](O)[C@@H](NCCN)NC(=O)[C@@H]2[C@@H](O)CCN2C(=O)[C@H]([C@H](O)CCN)NC(=O)[C@H]([C@H](O)[C@@H](O)c2ccc(O)cc2)NC(=O)[C@@H]2C[C@@H](O)CN2C(=O)[C@H]([C@@H](C)O)NC1=O : what is it?
A. 0.125
